Each entry below lists one item and its recorded folding stability dG unfold value.
- protocol-summary: folding stability dG unfold (combined trypsin and chymotrypsin); higher = more stable
Lab book: enter the figure in kcal/mol, no units written.

Please review the entries below; each comes with its answer.
SAGGGGSMTIVVPVEVSPETSEEEVRKRAEEIARPIAEELGKKVSIEVSREEDPEGGRRWTATITILSAGGS [r16_279_JUSTAS]    2.71
SAGPGAELVAEFEVELGDRGARIRIYRAPDFLIIRVDYPDGTVPVFRIDPRTGRIVEVRTFRVRPDLPLSAG [r14_676_TrMRF]    2.28
SMPGSITVEIEVEEEEDPERGGRRIKKLLIKKVTYKDEKGNSSDEVANEIKNALKEKLEKEGKPAEIELTSA [r9_261_JUSTAS]    1.27
SAGGSAPMFEIWFRDPEAIEKLLEESGFPVSIERFPNDPNWVKITIFMKGPMEEAQDKLREALGLESAGGSA [r15_118_TrROS]    2.74
SAGGSAGGSAGMLKKSPSPSIITVKIKPPDSDEVKTINIPPDKPEEVEKLREKGLEIEVLSAGGSAGGSAGG [r11_1006_JUSTAS]    -0.211

Ask | Fill in the blank: the reported folding stability dG unfold of SAGGSAPGEPIFIRWKIEHPNGNPWTIPFPIKTEEQALEQAIRFAESIAKKLGNPNVKIKIDEIIPSAGGSA [r15_698_TrROS] is ____.
Reply | 0.914

Ask | Same question, SAGGSAGGWQPIAEHEFENPEDGKKIKIYYWPENGMMRIEFPNGRKHVIPPGDPFKSIEEMIKASAGGSAGG [r6_72_TrROS] this time
Reply | 1.54

Ask | Same question, SAGGMTIEEILNMSIEEVKALAEEKGLKEVVITLPDGSKITIKVNKDGSIEVTVTNKDGSKKTFTFPSAGGS [r8_51_TrROS_Hall] this time
Reply | 4.05

Ask | Same question, SAGGSAAVDLSERPPALPVPLKVEVIPIPETGSSLVLVTHPDGFVLLARVNPEGEVELLSAFSLDDSAGGSA [r15_790_TrMRF] this time
Reply | 2.51

Ask | Same question, SAGGSADYVFVRIEVRDPKNKQPMSIMIPVPPDMTPDEAIEEAEMIANTFKEKGLEITVEVEPMPPSAGGSA [r15_268_TrROS] this time
Reply | 1.45

Ask | Same question, SKVRELLREIARPHGMPITDVKVEPPPDGWHKVTFQIQFPMKDPNGQPMRRMTFPATITVRNGKITEITISA [r9_519_TrROS] this time
Reply | 1.72

Ask | Same question, SAGGMVTVERGPENRVITITLPPSVPEKVDELAAKLGTDYVTTEPLPEGDLVRYTIYVPGDNPALLESAGGS [r16_479_JUSTAS] this time
Reply | -0.948

Ask | Same question, SAGGSAGGSAGEVVLSPTDKTLTLTSFDPKTGVTYYTVFYPATGTTSTTSTGNLESLIAASAGGSAGGSAGG [r17_300_JUSTAS] this time
Reply | 0.929
